Tested on: TO-3-N3-2 (biotin conjugate)
Test: pull-down binding Z-score (relative to library population); higher = stronger binding
Conditions: RNA library: Library-2
Param threshold (-0.2) applies to pull-down binding Z-score; output satisfied when value >= threshold, not satisfied when value < threshold.

As a guide, the following entries are already answered.
> print(dat)
                              residue.codes  discrete.label
1           CAGCUUGCUCUGCUUU [hsa-mir-4303]       satisfied
2     CUCUGGUCAGUUGGGAGUCUGAG [hsa-mir-143]       satisfied
3  GGCGGCUCGGAGUACCUCUGCCGCC [hsa-mir-6869]       satisfied

Prompt: Tell me whether pull-down binding Z-score is at least -0.2 here: CCCGGCCGGCAGCCCCCGGCCUUAAAGCGCGGG [hsa-mir-4741]
Completion: satisfied

Prompt: Tell me whether pull-down binding Z-score is at least -0.2 here: AGGCUGUCUUCAUUCCCUCUUGACCACCC [hsa-mir-6795]
Completion: satisfied

Prompt: Tell me whether pull-down binding Z-score is at least -0.2 here: AGUGUAAAAGUGCCUUUUACAUU [DMSMaPseq_invitro_SARS-CoV-2_Motif_79]
Completion: not satisfied

Prompt: Tell me whether pull-down binding Z-score is at least -0.2 here: CCCAGCCUUGGCGUUCAGGUGCUGAG [hsa-mir-3150b]
Completion: not satisfied

Prompt: Tell me whether pull-down binding Z-score is at least -0.2 here: ACCACCAAUUAAAGAUUUUGGUGGU [SHAPE_invitro_SARS-CoV-2_Motif_434]
Completion: not satisfied

Prompt: Tell me whether pull-down binding Z-score is at least -0.2 here: UUUUCUGUCCUGUCCACACAGAAAA [hsa-mir-1537]
Completion: not satisfied

Prompt: Tell me whether pull-down binding Z-score is at least -0.2 here: GUAGACAAUUCUAGUCUUAC [SHAPE_invitro_SARS-CoV-2_Motif_131]
Completion: not satisfied

###

Tested on: TO-N3-2 (biotin conjugate)
Assay: pull-down binding Z-score (relative to library population); higher = stronger binding
Conditions: RNA library: Library-2
Collected pull-down binding Z-score values appear next to each entry.
Please state the value as a number alone, without comment.

> print(dat)
                              residue.codes  measured.number
1  ACCCUGCAGCCCCAGCUGGAGGAUGAGGAGAUGCUGGGCUUGGGU [hsa-mir-4313]             2.93

Prompt: Query: pull-down binding Z-score; subject: UAAUAGCAAUCCUUAAAUGCCAUUA [hsa-mir-4477b]
Completion: -1.16

Prompt: Query: pull-down binding Z-score; subject: AGAGAUGAGCAUAAAGUUUUU [hsa-mir-6086]
Completion: -0.389

Prompt: Query: pull-down binding Z-score; subject: UGUCCGUGAUCCACAGACA
Completion: -0.685

Prompt: Query: pull-down binding Z-score; subject: GCUGGUGCACUUGCCAGU [IAV_invivo_M1_M2_7_Motif_8+IAV_invivo_M1_M2_7_Motif_8]
Completion: -0.0123

###

Test system: TO-3-N3 (biotin conjugate)
Assay: pull-down binding Z-score (relative to library population); higher = stronger binding
Conditions: RNA library: Library-2
Param threshold (0.03) applies to pull-down binding Z-score; output Criterion met when value >= threshold, Criterion not met when value < threshold.

As a guide, the following entries are already answered.
> print(dat)
                              residue.codes     discrete.label
1  UCCUGUUUACCUUUUACAAUUAAUUGCCAGGA [SHAPE_invivo_SARS-CoV-2_Motif_533]  Criterion not met
2  GCCACAAAGGC [IAV_invivo_PA_3_Motif_6+IAV_invivo_PA_3_Motif_6]  Criterion not met
3  AGUGAUGGAACU [DMSMaPseq_invitro_SARS-CoV-2_Motif_229]  Criterion not met

Prompt: Tell me whether pull-down binding Z-score is at least 0.03 here: CUGGUAGUAUAAAACCCAG [hsa-mir-934]
Completion: Criterion not met

Prompt: Tell me whether pull-down binding Z-score is at least 0.03 here: AGUCCGUGCAUCCGCCCUUCGAUGCUUGGGUU [hsa-mir-3182]
Completion: Criterion not met

Prompt: Tell me whether pull-down binding Z-score is at least 0.03 here: CACAGAAAAGUACUGUG [SHAPE_invivo_SARS-CoV-2_Motif_52]
Completion: Criterion met

Prompt: Tell me whether pull-down binding Z-score is at least 0.03 here: CCUGCCUGCCUGCCUG [r(CCUG)4]
Completion: Criterion met

Prompt: Tell me whether pull-down binding Z-score is at least 0.03 here: AAUUAUGAAGAUUUACUCAUUCGUAAGUCUAAUCAUAAUU
Completion: Criterion not met

Prompt: Tell me whether pull-down binding Z-score is at least 0.03 here: CUCACAUGGAGUAAAAUAUGAU [hsa-mir-3134]
Completion: Criterion met

Prompt: Tell me whether pull-down binding Z-score is at least 0.03 here: UGUCAUUACUUCAGGUGAUGGCA
Completion: Criterion met
